compounds and their reported inhibition
- system.name: DNA topoisomerase 1 (Homo sapiens) (UniProt P11387)
- Sequence (P11387 whole entry): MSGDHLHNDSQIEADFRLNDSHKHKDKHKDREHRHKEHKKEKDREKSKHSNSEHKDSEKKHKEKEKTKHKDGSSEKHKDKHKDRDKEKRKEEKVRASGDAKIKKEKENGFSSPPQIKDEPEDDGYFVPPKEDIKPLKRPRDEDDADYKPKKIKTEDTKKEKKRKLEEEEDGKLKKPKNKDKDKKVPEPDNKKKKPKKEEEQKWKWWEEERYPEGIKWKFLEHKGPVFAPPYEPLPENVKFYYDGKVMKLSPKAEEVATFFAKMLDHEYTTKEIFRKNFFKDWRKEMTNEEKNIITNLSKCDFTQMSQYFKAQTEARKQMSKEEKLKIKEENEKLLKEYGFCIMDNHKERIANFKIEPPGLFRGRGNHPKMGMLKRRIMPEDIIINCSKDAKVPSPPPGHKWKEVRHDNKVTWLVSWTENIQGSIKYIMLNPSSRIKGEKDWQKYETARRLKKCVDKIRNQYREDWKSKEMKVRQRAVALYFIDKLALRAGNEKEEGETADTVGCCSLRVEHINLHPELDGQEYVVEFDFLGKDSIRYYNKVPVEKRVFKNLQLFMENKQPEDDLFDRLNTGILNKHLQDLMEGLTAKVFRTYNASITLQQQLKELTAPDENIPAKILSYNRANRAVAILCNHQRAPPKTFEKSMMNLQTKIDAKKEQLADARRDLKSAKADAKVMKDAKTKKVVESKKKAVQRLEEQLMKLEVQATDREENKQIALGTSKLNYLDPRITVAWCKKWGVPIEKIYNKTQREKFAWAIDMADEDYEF
- experiment.notes: Inhibition of human topoisomerase 1 assessed as decrease in pBR322 mobility on agarose gel at 10 uM by electrophoresis
Respond with the figure and its unit, in that order.

COc1ccc2c(c1)/C(=N\OCCCN(C)C)c1c-2cnc2ccccc12    5%
COc1ccc2c(c1)/C(=N\OCCN1CCOCC1)c1c-2c(N2CCNCC2)nc2ccccc12    40%

inhibition measured on COc1ccc2c(c1)/C(=N\OCCN1CCCCC1)c1c-2cnc2ccccc12 = 28%

====

- experiment.notes: Inhibition of human topoisomerase 2 assessed as decrease in pBR322 mobility on agarose gel by electrophoresis
pIC50: −log10 of the molar value.
molecules and their reported pIC50

Examples with their reported pIC50 follow.
CC[C@@]1(O)C(=O)OCc2c1cc1n(c2=O)Cc2cc3ccccc3nc2-1    < 4.00
COc1ccc2c(c1)C(=O)c1c-2cnc2ccccc12    < 4.00

pIC50 measured on COc1ccc2c(c1)/C(=N\OCCN1CCOCC1)c1c-2cnc2ccccc12 = < 4.00

====

- System: Detroit 551
- experiment.notes: Selectivity index, ratio of IC50 for human Detroit 551 cells to IC50 for human PC3 cells
- Format: functional
experimental.readout: RatioGI50

Examples with their reported RatioGI50 follow.
COc1ccc2c(c1)/C(=N\OCCN1CCOCC1)c1c-2c(N2CCNCC2)nc2ccccc12    0.4
COc1ccc2c(c1)/C(=N\OCCCN(C)C)c1c-2c(N2CCNCC2)nc2ccccc12    0.52
COc1ccc2c(c1)/C(=N\OCCN1CCCCC1)c1c-2c(N2CCNCC2)nc2ccccc12    0.41

Consider now this further molecule.
RatioGI50 measured on COc1ccc2c(c1)/C(=N\OCCN(C)C)c1c-2cnc2ccccc12 = 3.62

src = ChEMBL document CHEMBL1240482
